molecular target: recombinant human Estrogen Receptor alpha ligand binding domain, residues 307-554 (ER alpha-LBD (GST)) (Homo sapiens); experiment: ERα binding assay (LanthaScreen TR-FRET competition); details: TR-FRET competition with Fluormone ES2 tracer, 4 hours at room temperature; single experiment or average of two or more
PARAMETER: IC50 (nM)
Lab book: enter the figure in nM, no units written.

COMPOUND	PARAMETER	UNIT_TEXT	READING
Cc1ncsc1-c1ccc(CNC(=O)[C@@H]2C[C@@H](O)CN2C(=O)[C@@H](NC(=O)COCCCCC(=O)NCCOc2cc(F)c([C@@H]3c4[nH]c5ccccc5c4C[C@@H](C)N3CC(C)(C)F)c(F)c2)C(C)(C)C)cc1 [Example 142]	IC50	nM	1.1

The record that follows has no IC50 shown yet.
Note IC50 for the compound shown: Cc1ncsc1-c1ccc(CNC(=O)[C@@H]2C[C@@H](O)CN2C(=O)[C@@H](NC(=O)CNCc2ccc(COc3cc(F)c([C@@H]4c5[nH]c6ccccc6c5C[C@@H](C)N4CC(C)(C)F)c(F)c3)nc2)C(C)(C)C)cc1 [Example 146] 0.8

---

# pIC50 annotations
target: recombinant human Estrogen Receptor alpha ligand binding domain, residues 307-554 (ER alpha-LBD (GST)) (Homo sapiens, UniProt P03372); assay: ERα binding assay (LanthaScreen TR-FRET competition); conditions: TR-FRET competition with Fluormone ES2 tracer, 4 hours at room temperature; single experiment or average of two or more
Sequence (P03372 307-554): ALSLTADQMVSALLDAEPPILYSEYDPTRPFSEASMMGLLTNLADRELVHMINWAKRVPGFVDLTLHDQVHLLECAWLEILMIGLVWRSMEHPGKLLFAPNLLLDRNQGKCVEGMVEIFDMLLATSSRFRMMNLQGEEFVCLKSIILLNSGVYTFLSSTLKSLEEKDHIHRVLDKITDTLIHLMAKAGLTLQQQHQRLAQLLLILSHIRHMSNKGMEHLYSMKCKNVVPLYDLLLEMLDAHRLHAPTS
pIC50 here is simply -log10 of the concentration when that concentration is written in mol/L.

Worked cases, pIC50 given:
1. Cc1ncsc1-c1ccc(CNC(=O)[C@@H]2C[C@@H](O)CN2C(=O)[C@@H](NC(=O)COCCCCOCCOc2cc(F)c([C@@H]3c4[nH]c5ccccc5c4C[C@@H](C)N3CC(C)(C)F)c(F)c2)C(C)(C)C)cc1 9.10
2. Cc1ncsc1-c1ccc([C@H](C)NC(=O)[C@@H]2C[C@@H](O)CN2C(=O)[C@@H](NC(=O)COCCCCOCCCOc2cc(F)c([C@@H]3c4[nH]c5ccccc5c4C[C@@H](C)N3CC(C)(C)F)c(F)c2)C(C)(C)C)cc1 9.40
3. Cc1ncsc1-c1ccc(CNC(=O)[C@@H]2C[C@@H](O)CN2C(=O)[C@@H](NC(=O)COCCOCCCCCOc2cc(F)c([C@@H]3c4[nH]c5ccccc5c4C[C@@H](C)N3CC(F)F)c(F)c2)C(C)(C)C)cc1 9.05

Continue with the compound presented below.
Write down pIC50 measured for item "Cc1ncsc1-c1ccc(CNC(=O)[C@@H]2C[C@@H](O)CN2C(=O)[C@@H](NC(=O)C(C)(C)OCCCCCCOc2cc(F)c([C@@H]3c4[nH]c5ccccc5c4C[C@@H](C)N3CC(C)(C)F)c(F)c2)C(C)(C)C)cc1" 9.10

---

Molecular target: Estrogen Receptor (ERα) in MCF-7 human ductal carcinoma breast cell line (Homo sapiens, UniProt P03372)
Construct: endogenous in cells; host or cells: MCF-7
Sequence (P03372 whole entry): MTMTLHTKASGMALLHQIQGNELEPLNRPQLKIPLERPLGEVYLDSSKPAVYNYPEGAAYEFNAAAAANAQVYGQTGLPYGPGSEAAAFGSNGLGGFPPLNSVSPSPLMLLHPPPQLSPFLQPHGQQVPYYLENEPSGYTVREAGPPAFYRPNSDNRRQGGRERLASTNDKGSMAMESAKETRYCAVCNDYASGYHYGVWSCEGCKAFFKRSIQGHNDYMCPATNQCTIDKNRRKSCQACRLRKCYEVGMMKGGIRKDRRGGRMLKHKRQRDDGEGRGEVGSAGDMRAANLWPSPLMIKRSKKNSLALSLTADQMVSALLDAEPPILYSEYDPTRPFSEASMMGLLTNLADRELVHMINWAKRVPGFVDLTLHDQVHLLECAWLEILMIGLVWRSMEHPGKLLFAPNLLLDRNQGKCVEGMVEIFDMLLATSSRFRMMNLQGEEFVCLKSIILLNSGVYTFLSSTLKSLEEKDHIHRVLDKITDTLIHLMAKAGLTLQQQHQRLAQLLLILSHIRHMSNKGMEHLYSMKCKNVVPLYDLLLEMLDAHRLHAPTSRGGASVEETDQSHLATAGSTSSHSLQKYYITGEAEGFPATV
Assay: MCF-7 ER degradation assay (cell based immuno-fluorescence)
Conditions: MCF-7 cells, 18-22 hours incubation, 50% reduction of ERα expression; single experiment or average of two or more; read-out: MCF-7 ER degradation IC50
Method: MCF-7 ER Degradation Assay The ability of compounds to down-regulate Estrogen Receptor (ER) numbers was assessed in a cell based immuno-fluorescence assay using the MCF-7 human ductal carcinoma breast cell line. […] Cells were syringed once using a sterile 18 G×1.5 inch (1.2×40 mm) broad gauge needle and cell density was measured using a Coulter Counter (Beckman). […]
PARAMETER: DC50 (nM)
Write it as a number; the unit nM goes unstated.

MOLECULE	READING
Cc1ncsc1-c1ccc(CNC(=O)[C@@H]2C[C@@H](O)CN2C(=O)[C@@H](NC(=O)CCCCN2CCN(CCOc3cc(F)c([C@@H]4c5[nH]c6ccccc6c5C[C@@H](C)N4CC(C)(C)F)c(F)c3)CC2)C(C)(C)C)cc1 [Example 102]	0.9

Query DC50 for Cc1ncsc1-c1ccc(CNC(=O)[C@@H]2C[C@@H](O)CN2C(=O)[C@@H](NC(=O)CNCc2ccc(COc3cc(F)c([C@@H]4c5[nH]c6ccccc6c5C[C@@H](C)N4CC(C)(C)F)c(F)c3)nc2)C(C)(C)C)cc1 [Example 146] 0.6

Read the entry Cc1ncsc1-c1ccc(CNC(=O)[C@@H]2C[C@@H](O)CN2C(=O)[C@@H](NC(=O)COCCOCCCCCOc2cc(F)c([C@@H]3c4[nH]c5ccccc5c4C[C@@H](C)N3CC(F)(F)F)c(F)c2)C(C)(C)C)cc1 [Example 139] and write its reported DC50. 1.1

Return the recorded DC50 value; entry: Cc1ncsc1-c1ccc([C@H](C)NC(=O)[C@@H]2C[C@@H](O)CN2C(=O)[C@@H](NC(=O)C(F)(F)OCCCOCCCOc2cc(F)c([C@@H]3c4[nH]c5ccccc5c4C[C@@H](C)N3CC(C)(C)F)c(F)c2)C(C)(C)C)cc1 [Example 120] 1.6
